system: MOLT-4; experiment: NCI tumour cell line growth inhibition, 48 h
Active and inactive are the calls of the source. No stated cut-off is given here; in the data, active = GI50 up to about 1.1 µM and inactive = higher.
observed property: GI50

Examples from the recorded data:
>  <compound>
Cc1ccc(-c2c(C#N)c(S)n(NS(=O)(=O)c3ccc(C)cc3)c(=O)c2C#N)cc1

>  <observed property>
GI50

>  <experimental value>
24.2 µM (inactive)

$$$$
>  <compound>
NC(CCCC(N)P(=O)(O)O)C(=O)O (stereo unspecified)

>  <observed property>
GI50

>  <experimental value>
> 100 µM (inactive)

$$$$
>  <compound>
CCCCCCCCCCCCSC(=S)c1c(C)[nH]n(-c2ccccc2)c1=O

>  <observed property>
GI50

>  <experimental value>
6.61 µM (inactive)

$$$$
>  <compound>
O=C(O)CCCN1CCCCC1

>  <observed property>
GI50

>  <experimental value>
> 100 µM (inactive)

$$$$

For every item below, please supply its GI50.
1. CC[C@H](C)N(CCN)C(=O)c1cc2ccccc2c(-c2ccccc2Cl)n1
2. COC(=O)c1c(C)cccc1/C=C1\Cc2cc(C)cc(C)c2C1=O
3. C=C(C)CC(C)(c1cc2ccccc2n1C)N1CCOCC1 (stereo unspecified)

Found:
["7.31 µM (inactive)", "> 100 µM (inactive)", "40.3 µM (inactive)"]
